assay: Particle size and polydispersity by dynamic light scattering (Litesizer 500); type: physicochemical; settings: colloids produced by the amphipathic sequence in soy oil
No end group written: not given here. *: point of attachment. methylmercury = [CH3][Hg]*
readout_label: Polydispersity (%)
State just the number; it will be interpreted in %.

Check out these entries, answers already filled in.
Ac-FLIVI-KKKKK-CO-NH2 (Ac-FLIVIKKKKK-NH2) [Ac-FLIVI-KKKKK-CONH2] = 20
Ac-FLIVIGSII-KKKKK-CONH2 (Ac-FLIVIGSIIKKKKK-NH2) [Ac-FLIVIGSII-KKKKKCONH2] = 23
Ac-FLIVI-KKKKK-C-Me-Hg (Ac-FLIVIKKKKKC(methylmercury)) = 25
Ac-FLLLL-KKKKK-CONH2 (Ac-FLLLLKKKKK-NH2) = 200
Ac-IVFLI-KKKKK-CONH2 (Ac-IVFLIKKKKK-NH2) = 25
5(6)-Ac-FLIVI-KKKKK- C-CF (Ac-FLIVIKKKKKC; also: 5(6)-carboxyfluorescein label (C-CF), attachment not given here) = 21

Moving on to the next substance.
*Q* Name the recorded Polydispersity for Ac-FAAAA-KKKKK-CONH2 (Ac-FAAAAKKKKK-NH2) [oligo-alanine peptide] .
*A* 500
